Values from a melting point compilation (Tetko et al.)

quantity: melting point

Consider the worked cases shown below.
{"molecule": "Cc1cc(Br)ccc1C(=O)N1CCCC(C(=O)O)C1 (stereo not drawn)", "melting point": "123 to 125 °C"}
{"molecule": "O=[N+]([O-])c1ccc(Cl)cc1CBr", "melting point": "61 to 63 °C"}

So, `Cc1cccc2nc(C(F)(F)F)[nH]c(=O)c12` ? Its melting point was 118 to 120 °C

----------
quantity: melting point

Consider the worked cases shown below.
{"compound": "Cn1cnc(S(=O)(=O)NC2CCCC2)c1Cl", "melting point": "136 to 138 °C"}
{"compound": "Cc1cccc2[nH]cc(CC(=O)O)c12", "melting point": "149 to 151 °C"}
{"compound": "O=C1Nc2c(Br)cc(F)cc2C1=O", "melting point": "215 to 217 °C"}

So, CC(NC(=O)c1ccccc1Cl)C(=O)O (stereo not drawn) ? Its melting point was 137 to 139 °C

So, COc1ccc(NC(=O)C(Cl)c2ccccc2)cc1 (stereo not drawn) ? Its melting point was 152 to 156 °C

So, `O=[N+]([O-])c1cc(S(=O)(=O)N2CCOCC2)ccc1N1CCOCC1` ? Its melting point was 154 to 156 °C

So, `CC(C)(C)c1ccc(C(=O)NC(=O)CCl)cc1` ? Its melting point was 120 to 122 °C

So, `O=C(O)c1cnnn1-c1ccccc1Cl` ? Its melting point was 174 to 176 °C

So, `Nc1nc(-c2ccc3c(c2)CCC(=O)N3)cs1` ? Its melting point was 248 to 250 °C

So, `O=C(O)c1ccc(CNC(=O)C23CC4CC(CC(C4)C2)C3)cc1` ? Its melting point was 195 to 197 °C

So, `Cc1cnn(-c2ccccc2)c1N` ? Its melting point was 79 to 81 °C

So, `N#Cc1cc2c([nH]c1=O)CCCC2` ? Its melting point was 246 to 248 °C

So, `CC(=O)Nc1ccc(N)c(C(F)(F)F)c1` ? Its melting point was 118 to 120 °C

So, `CS(=O)(=O)c1ccc(Oc2ccc(N)cc2)cc1` ? Its melting point was 152 to 154 °C

So, `Nc1ncn(Cc2ccccn2)n1` ? Its melting point was 113 to 115 °C

So, `O=C(O)c1c[nH]nc1-c1cccnc1` ? Its melting point was 255 to 257 °C

So, `COc1ccccc1NC(=O)CCCCC(=O)O` ? Its melting point was 82 to 84 °C

So, CC(C)(C)C(N)CN1CCc2ccccc2C1 (stereo not drawn) ? Its melting point was 62 to 64 °C

So, `Nc1cc(-c2cccs2)ncn1` ? Its melting point was 222 to 224 °C

So, `NS(=O)(=O)N1CCNCC1` ? Its melting point was 164 to 166 °C

----------
Reported melting point values follow for various compounds

So, `O=Cc1cn(-c2ccccc2)nc1-c1cccs1` ? Its melting point was 90 to 92 °C

So, N#CC1=C(N)N2Cc3ccccc3CC2C1=O (centres undefined) ? Its melting point was 307 to 309 °C

So, `Cc1ccc(NC(=O)CC2(C(=O)O)CCCC2)cc1` ? Its melting point was 191 to 193 °C

So, `N#Cc1ccnc(OCc2ccccc2)c1` ? Its melting point was 74 to 76 °C

So, `Cc1nn(-c2ccccc2)c(Cl)c1CCl` ? Its melting point was 35 to 41 °C

So, `C/C(CC(=O)c1ccccc1)=N\c1ccccc1` ? Its melting point was 110 to 112 °C

So, `CNCC(=O)Nc1ccc(C)cn1` ? Its melting point was 79 to 81 °C

So, `O=C(NNc1ccccc1)Nc1ccccc1` ? Its melting point was 178 to 180 °C

So, `O=C(O)c1cnc(-c2ccccc2F)s1` ? Its melting point was 187 to 189 °C

So, `COc1cc(CN2CCNCC2)cc(OC)c1OC` ? Its melting point was 102 to 104 °C

So, `NCCCNC(=O)c1cccc(O)c1` ? Its melting point was 136 to 138 °C

So, `CC(C)COc1ccc(C(C)(C)C(=O)O)cc1` ? Its melting point was 107 to 109 °C

So, `COCCOc1ccc(C#N)cc1` ? Its melting point was 44 to 46 °C

So, CC(O)C(NS(=O)(=O)c1cccs1)C(=O)O (centres undefined) ? Its melting point was 183 to 185 °C

So, `CC(C)OC(=O)CC(N)=S` ? Its melting point was 68 to 70 °C

----------
Reported melting point values follow for various compounds

{"compound": "O=C(O)C1COCCO1 (stereo unspecified)", "quantity": "melting point", "measuredValue": "59 to 61 °C"}
{"compound": "COc1ccccc1NC(=O)Cc1noc(CCl)n1", "quantity": "melting point", "measuredValue": "95 to 97 °C"}
{"compound": "CC(C)c1ccc(C2(C(=O)O)CCC2)cc1", "quantity": "melting point", "measuredValue": "119 to 121 °C"}
{"compound": "O=C(O)C1CSCCS1 (stereo unspecified)", "quantity": "melting point", "measuredValue": "58 to 60 °C"}
{"compound": "COC(=O)c1ccc2[nH]cc(C3CCNCC3)c2c1", "quantity": "melting point", "measuredValue": "169 to 171 °C"}
{"compound": "CCOC(=O)c1cnc2c(C)cc(C)cc2c1Cl", "quantity": "melting point", "measuredValue": "72 to 74 °C"}
{"compound": "Cc1cc(S(=O)(=O)Cl)cnc1Cl", "quantity": "melting point", "measuredValue": "54 to 56 °C"}
{"compound": "CC(C)S(=O)(=O)Nc1cccc(O)c1", "quantity": "melting point", "measuredValue": "123 to 125 °C"}

So, `O=C(O)c1ccc2nc(Cl)ccc2c1` ? Its melting point was 228 to 230 °C

So, `COC(=O)c1c(S)nc2ccccc2c1O` ? Its melting point was 179 to 181 °C

----------
quantity: melting point

Consider the worked cases shown below.
{"compound": "Cc1nc(C=O)c2ccccn12", "melting point": "115 to 117 °C"}
{"compound": "CCC(CC)C(O)CN (stereo not drawn)", "melting point": "39 to 41 °C"}

Now consider a different compound.
So, `N#CCOc1ccc(CCl)cc1` ? Its melting point was 63 to 65 °C

----------
Reported melting point values follow for various molecules

Consider the worked cases shown below.
{"molecule": "O=Cc1c(-c2ccc(Br)s2)nc2ccccn12", "melting point": "186 to 188 °C"}
{"molecule": "Nc1ccnn1Cc1cccnc1", "melting point": "86 to 88 °C"}

So, `COC(=O)c1ccc(CBr)cc1OC` ? Its melting point was 44 to 46 °C

So, `Cc1ccnc2c1NC(=O)CN2` ? Its melting point was 216 to 218 °C

So, `O=C(O)c1ccccc1Oc1cccc(Br)c1` ? Its melting point was 108 to 110 °C

So, `O=C(CBr)C12CC3CC(CC(C3)C1)C2` ? Its melting point was 59 to 61 °C

So, NC(=S)C1CN2CCCC2CO1 (stereo unspecified) ? Its melting point was 146 to 148 °C

So, `O=C(O)c1cc(-c2cccs2)nc2ccccc12` ? Its melting point was 199 to 201 °C

So, CC(Cl)c1cn(-c2ccccc2)nn1 (stereo unspecified) ? Its melting point was 69 to 71 °C

So, `O=C(O)c1cc(Cl)c2ccccc2c1O` ? Its melting point was 228 to 230 °C

So, `Nc1sc2c(c1C(=O)N1CCOCC1)CCCC2` ? Its melting point was 90 to 92 °C

----------
Reported melting point values follow for various molecules

Consider the worked cases shown below.
{"compoundString": "O=C(CCl)NCC(=O)c1ccccc1", "measuredValue": "124 to 126 °C"}
{"compoundString": "CC(=O)Nc1cccc(S(=O)(=O)Cl)c1", "measuredValue": "78 to 80 °C"}
{"compoundString": "O=S(=O)(Cl)CCOc1ccc(F)cc1", "measuredValue": "34 to 36 °C"}
{"compoundString": "O=C(O)c1cc(S(=O)(=O)N2CCOCC2)c[nH]1", "measuredValue": "264 to 266 °C"}
{"compoundString": "O=C(O)CSc1nc(-c2cccnc2)no1", "measuredValue": "154 to 156 °C"}

Now consider a different molecule.
So, `N#Cc1ccc(Cn2cnc3ccccc32)cc1` ? Its melting point was 103 to 105 °C

----------
Reported melting point values follow for various molecules

Consider the worked cases shown below.
{"molecule": "O=C(O)c1cncc2ccccc12", "melting point": "249 to 251 °C"}
{"molecule": "Cc1c(Cl)nc(N(C)C)nc1Cl", "melting point": "54 to 56 °C"}
{"molecule": "O=S(=O)(Cl)c1ccc(CCCl)cc1", "melting point": "53 to 55 °C"}
{"molecule": "O=C(O)CCCCc1ccc(Br)cc1", "melting point": "90 to 92 °C"}

So, `CC(C)(C)OC(=O)Nc1ccc(CC#N)cc1` ? Its melting point was 119 to 121 °C

So, `CN1CCN(c2ccc(C=O)cc2F)CC1` ? Its melting point was 65 to 67 °C

So, `CCOc1ccc(S(=O)(=O)N(C)C)cc1N` ? Its melting point was 124 to 126 °C

So, CC(N)C(O)c1c(F)cccc1F (stereo not given) ? Its melting point was 119 to 121 °C

So, `CCN(c1ccccc1)S(=O)(=O)c1ccc(Cl)nc1` ? Its melting point was 81 to 83 °C

So, `O=C(O)c1ccc2[nH]nnc2n1` ? Its melting point was 277 to 279 °C

So, CC(Br)C(=O)C12CC3CC(CC(C3)C1)C2 (stereo not given) ? Its melting point was 86 to 88 °C

So, `CCc1sc(C(=O)O)cc1C` ? Its melting point was 98 to 100 °C

So, `N#Cc1cccc(N2C(=O)CCC2=O)c1` ? Its melting point was 134 to 136 °C
